- Test system: BDF1 mice, P388 leukemia ip, median survival T/C
- test_details: NCI In Vivo Anticancer Drug Screen. Data for tumor model P388 Leukemia (intraperitoneal) in B6D2F1 (BDF1) mice
- conditions_used: endpoint: median survival time; dose: 200.0 mg/kg/injection; schedule: Q01DX009 (ip); vehicle: saline; higher = longer survival
Inconclusive results and toxic doses are left out.
Exercise: for every item that follows, state its recorded T/C.

Examples with their reported T/C follow.
compound	test_result
COc1ccc(Cc2nccc3c(OC)c(OC)ccc23)cc1OC	87 % of control
CC/C(=N\NS(=O)(=O)c1ccc(C)cc1)c1ccc(OC)cc1	93 % of control
OC(CI)C(O)C(O)C(O)CI (stereo unspecified)	109 % of control
CCN(CC)C(=O)COc1cc2c(O)c3c(O)c(C)c4c(c13)C(=O)C(C)(OC=CC(OC)C(C)C(OC(C)=O)C(C)C(O)C(C)C(O)C(C)C=CC=C(C)C(=O)N2)O4 (stereo unspecified)	123 % of control
FC(F)(F)c1nc2nccnc2[nH]1	108 % of control

Kindly note the recorded T/C for CN(C)[C@@H]1C(=O)C(C(N)=O)=C(O)[C@@]2(O)C(=O)C3=C(O)c4c(O)ccc(Cl)c4[C@@](C)(O)[C@H]3C[C@@H]12 , which is 122 % of control
